# System: HBsAg in HepG2.2.15 cells
# TEST SUMMARY: HBsAg assay: inhibition of HBsAg in HepG2.2.15 cells (chemiluminescence immunoassay of supernatant)
# Format: cell-based, hepatitis B virus
# COND: Hepatitis B virus, HepG2.2.15, 144 h, read-out: sAg EC50, HepG2.2.15 cells, supernatant collected at day 6 after exposure, HBsAg CLIA
pEC50: −log10 of the molar value.
Catalogue of pEC50 values
METRIC NAME: pEC50

molecule="COc1cc2c(cc1OC)C1(CCC1)N(c1cnc(-c3ncccn3)nc1)CC2 [Example 18]" metric_name=pEC50 value_measured=4.30
molecule="CCC1c2cc(F)c(OC)cc2CN1c1cnc(C(=O)Nc2nccn2C)nc1 (stereo not drawn) [Example 105]" metric_name=pEC50 value_measured=5.22
molecule="CCC1c2cc(F)c(OC)cc2CCN1c1cnc(C(N)=O)nc1 (stereo not drawn) [Example 118]" metric_name=pEC50 value_measured=6.28
molecule="CCC1c2cc(F)c(O)cc2CN1c1nc(-c2ncccn2)ncc1F (stereo not drawn) [Example 75]" metric_name=pEC50 value_measured=6.15
molecule="Cc1cnc(-c2ncccn2)nc1N1CC2CCC1c1ccccc12 (stereo not drawn) [Example 81]" metric_name=pEC50 value_measured=6.55
molecule="CCC1c2cc(F)c(OC)cc2CN1c1cnc(C(=O)Nc2ccccn2)nc1 (stereo not drawn) [Example 106]" metric_name=pEC50 value_measured=5.70
molecule="CCC1c2ccc(F)c(F)c2CCN1c1cc(=O)c(C(=O)O)c[nH]1 (stereo not drawn) [Example 112]" metric_name=pEC50 value_measured=4.96
molecule="CCC1c2ccccc2CCN1c1ccnc(-c2ncccn2)n1 (stereo not drawn) [Example 13]" metric_name=pEC50 value_measured=6.30
molecule="CCC1c2cc(F)c(OC)cc2CCN1c1cnc2c(=O)n(C)cnc2c1 (stereo not drawn) [Example 125]" metric_name=pEC50 value_measured=5.80

---

Catalogue of pEC50 values
# System: HBsAg in HepG2.2.15 cells
# TEST SUMMARY: HBsAg assay: inhibition of HBsAg in HepG2.2.15 cells (chemiluminescence immunoassay of supernatant)
# Format: cell-based, hepatitis B virus
# COND: Hepatitis B virus, HepG2.2.15, 144 h, read-out: sAg EC50, HepG2.2.15 cells, supernatant collected at day 6 after exposure, HBsAg CLIA
# Procedure: Inhibition of HBsAg was determined in HepG2.2.15 cells. Cells were maintained in culture medium containing 10% fetal calf serum, […], Glutamine, penicillin/streptomycin. Cells were seeded in 96-well collagen-coated plate at a density of 30,000 cells/well. Serially diluted compounds were added to cells next day at the final DMSO concentration of 0.5%. Cells were incubated with compounds for 2-3 days, after which medium was removed. […]
pEC50: −log10 of the molar value.
METRIC NAME: pEC50

compound="CCCC1c2ccccc2CCN1c1ccnc(-c2ncccn2)n1 (stereo not drawn)" value_measured=6.00
compound="CCC1c2cc(F)c(OC)cc2CN1c1ccnc(C(=O)O)n1 (stereo not drawn)" value_measured=5.92
compound=Fc1ccc2c(c1F)CCN(c1cnc(-c3ncccn3)nc1)C2 value_measured=5.47
compound="CCC1c2cc(OC)c(F)c(F)c2CCN1c1ccnc(-c2ncccn2)n1 (stereo not drawn)" value_measured=6.32
compound="CCC1c2cc(OC)c(OC)cc2CN1c1nc(-c2ncccn2)ncc1C(C)C (stereo not drawn)" value_measured=6.00
compound="CC1c2ccc(F)c(F)c2CCN1c1ccnc(-c2ncccn2)n1 (stereo not drawn)" value_measured=6.32
compound="CCC1c2ccccc2CN1c1cnc(-c2ncccn2)nc1 (stereo not drawn)" value_measured=6.10
compound="CCC1c2cc(F)c(F)cc2CN1c1nc(-c2ncccn2)ncc1C (stereo not drawn)" value_measured=7.37
compound="CCC1c2cc(F)c(F)cc2CN1c1ccnc(-c2ncccn2)n1 (stereo not drawn)" value_measured=7.04

src = patent US20210251991A1
